# assay_explanation: chemical genetic growth profiling, strain panel (AID 1159580);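 note: tested at 20 µM; growth read once vehicle control cultures reached saturation at 30 °C; 1 = growth at the plate median or of vehicle wells; lower values mean less growth of the strain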
# condition: S. cerevisiae deletion strains, growth OD, locus YHR079C, strain IRE1, active compounds read low
About 2,000 (36%) of roughly 5,500 compounds were called active. Roughly 18% stayed inconclusive and do not appear here. Some of the results follow. Where a SMILES comes first, the peptide text is derived from it.

compound: Clc1ccccc1CN1CCc2sccc2C1
normalized growth: 1.03

compound: COc1ccc(-c2oc3cc(OC)c(OC)c(OC)c3c(=O)c2OC)cc1
normalized growth: 1.02

compound: CC(C)(C)C1=C(C#N)C(c2c(Cl)cccc2Cl)C(C#N)=C(N)O1 (stereo not given)
normalized growth: 0.891

compound: Clc1cccc(Nc2ncc(-c3ccc4c(c3)OCCCO4)s2)c1
normalized growth: 0.663

compound: CC[C@@H]1OC(=O)C[C@@H](O)[C@H](C)[C@@H](O[C@@H]2O[C@H](C)[C@@H](O)[C@H](N(C)C)[C@H]2O)[C@@H](CCN2C[C@H](C)C[C@H](C)C2)C[C@@H](C)C(=O)/C=C/C(C)=C\[C@@H]1CO[C@@H]1O[C@H](C)[C@@H](O)[C@@H](OC)[C@H]1OC
normalized growth: 0.971

compound: CC(=O)N[C@@H](CC(=O)O)C(=O)N[C@@H](CCC(=O)O)C(=O)O (Ac-Asp-Glu-OH)
normalized growth: 0.99

compound: CCCNC(=O)NS(=O)(=O)c1ccc(Cl)cc1
normalized growth: 0.986

compound: COc1cc2nc(N3CCN(C(=O)C4COc5ccccc5O4)CC3)nc(N)c2cc1OC (stereo not given)
normalized growth: 0.981

compound: CC1=CC(=O)N(c2ccc(F)c(Cl)c2)C1=O
normalized growth: 0.195

compound: COc1ccc2c(=O)c(OC)c(-c3ccccc3)oc2c1
normalized growth: 0.925

compound: COc1ccc2oc(-c3ccccc3)c(OC)c(=O)c2c1
normalized growth: 0.926

compound: COc1ccc(-c2oc3cc(OC)c(OC)c(OC)c3c(=O)c2OC)cc1OC
normalized growth: 1.01

compound: COC(=O)[C@H](c1ccccc1Cl)N1CCc2sccc2C1
normalized growth: 0.956

compound: COc1ccc(-c2oc3ccccc3c(=O)c2OC)cc1
normalized growth: 0.897

compound: CC1=CC(=O)N(c2ccc(OC(F)(F)F)cc2)C1=O
normalized growth: 0.35

###

# assay_explanation: chemical genetic growth profiling, strain panel (AID 1159580);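 note: tested at 20 µM; growth read once vehicle control cultures reached saturation at 30 °C; 1 = growth at the plate median or of vehicle wells; lower values mean less growth of the strain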
# condition: S. cerevisiae deletion strains, growth OD, locus YDR001C, strain nth1
In all, about 5,500 compounds went through this assay and about 2,000 (36%) were called active. Another 18% or so got no clear call; they are omitted. Cut-off read from the data, not from the text of the source: active = normalized growth mostly below about 0.91 (no sharp cut-off); inconclusive = no clear call, values can overlap the other calls; inactive = mostly above about 0.92. Some of the results follow.
Classes used: T = active, F = inactive

molecule: NCCCCC(=O)O
label_value: F

molecule: Cc1cc(CC(=O)O)n(C)c1C(=O)c1ccc(Cl)cc1
label_value: F

molecule: COC(=O)[C@@H]1OC(=O)C2OC23[C@@]1(C)CCC1[C@@]2(C)CCC(=O)C(C)(C)C2C[C@@H](OC(C)=O)[C@]13C (some centres undefined)
label_value: F

molecule: C[C@H]1C[C@@H](O)[C@]2(O)[C@@]13CC(=O)OC[C@@]2(C)[C@](C)(O)C(=O)C3
label_value: F

molecule: COc1ccnc(CS(=O)c2nc3ccc(OC(F)F)cc3[nH]2)c1OC (centres undefined)
label_value: F

molecule: O=C(O)CCCCCCCC(=O)O
label_value: F

molecule: Fc1ccc([C@@H]2CCNC[C@H]2COc2ccc3c(c2)OCO3)cc1
label_value: F

molecule: O=C(O)COc1ccc(Cl)cc1Cl
label_value: F

molecule: CC1OC(O[C@H]2/C=C/C=C/C=C/C=C/C=C/C=C/C=C/[C@H](C)[C@@H](O)[C@@H](C)[C@H](C)OC(=O)CC(O)CC(O)CCC(O)C(O)CC(O)C[C@]3(O)C[C@H](O)C(C(=O)O)C(C2)O3)C(O)[C@H](N)C1O (some centres undefined)
label_value: T

###

# assay_explanation: chemical genetic growth profiling, strain panel (AID 1159580);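 note: tested at 20 µM; growth read once vehicle control cultures reached saturation at 30 °C; 1 = growth at the plate median or of vehicle wells; lower values mean less growth of the strain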
# condition: S. cerevisiae deletion strains, growth OD, locus YDL040C, strain nat1, active compounds read low
Among all 5,500 compounds or so, about 2,000 (36%) were called active. Another 18% or so got no clear call; they are omitted. Some of the results follow.
quantity: normalized growth

compound: CC(O)(P(=O)(O)O)P(=O)(O)O
recorded_value: 0.997

compound: NC(N)=NCCCCN=C(N)N
recorded_value: 1

compound: C[C@H]1C[C@@H](O)[C@]2(O)[C@@]13CC(=O)OC[C@@]2(C)[C@](C)(O)C(=O)C3
recorded_value: 1.02

compound: CC1OC(O[C@H]2/C=C/C=C/C=C/C=C/C=C/C=C/C=C/[C@H](C)[C@@H](O)[C@@H](C)[C@H](C)OC(=O)CC(O)CC(O)CCC(O)C(O)CC(O)C[C@]3(O)C[C@H](O)C(C(=O)O)C(C2)O3)C(O)[C@H](N)C1O (some centres not stated)
recorded_value: 1.01

compound: NC(N)=NCCN1CCCCCCC1
recorded_value: 1.02

compound: COc1ccc2c(c1)OCC(Cc1ccc(O)c(OC)c1)C2=O (configuration not stated)
recorded_value: 0.972

compound: N[C@@H](C(=O)O)[C@@H](O)[C@H](O)[C@H](O)CO
recorded_value: 1.01

compound: Cc1onc(-c2ccccc2)c1-c1ccc(S(N)(=O)=O)cc1
recorded_value: 1

compound: COc1c(C)c2c(c(O)c1C/C=C(\C)CCC(=O)O)C(=O)OC2
recorded_value: 0.758

compound: CCCNC(=O)NS(=O)(=O)c1ccc(Cl)cc1
recorded_value: 1.01

compound: COc1ccc2c(c1)OCC(Cc1ccc(OC)c(OC)c1)C2=O (configuration not stated)
recorded_value: 0.982

compound: CCCCC(=O)O[C@]1(C(=O)CO)CCC2C3CCC4=CC(=O)CC[C@]4(C)C3[C@@H](O)C[C@@]21C (some centres not stated)
recorded_value: 0.981

compound: CC1CCC(NC(=O)N(CCCl)N=O)CC1 (configuration not stated)
recorded_value: 0.983

compound: O=c1cccc2n1CC1CC2CN2CCCC[C@@H]12 (some centres not stated)
recorded_value: 0.961

compound: O=C(O)C(O)C(O)C(=O)O (configuration not stated)
recorded_value: 1.01

compound: CCC(C)C(=O)c1c(O)c(C)c2oc3c(C)c(O)c(C(=O)C(C)CC)c(O)c3c2c1O (configuration not stated)
recorded_value: 0.994

compound: CC(C)c1nc(N(C)S(C)(=O)=O)nc(-c2ccc(F)cc2)c1/C=C/[C@@H](O)C[C@@H](O)CC(=O)O
recorded_value: 1.01

compound: O=NN(CCCl)C(=O)NCCCl
recorded_value: 0.959

compound: NC(C(=O)O)C(O)C(=O)O (configuration not stated)
recorded_value: 0.996

compound: CC(C)(S)[C@@H](N)C(=O)O
recorded_value: 1

compound: C[C@]12C=CC(=O)C=C1CCC1C2[C@@H](O)C[C@@]2(C)C1CC[C@]2(O)C(=O)CO (some centres not stated)
recorded_value: 0.995

compound: Nc1nc(F)nc2c1ncn2[C@@H]1O[C@H](COP(=O)(O)O)[C@@H](O)[C@@H]1O
recorded_value: 0.997

###

# assay_explanation: chemical genetic growth profiling, strain panel (AID 1159580);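 note: tested at 20 µM; growth read once vehicle control cultures reached saturation at 30 °C; 1 = growth at the plate median or of vehicle wells; lower values mean less growth of the strain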
# condition: S. cerevisiae deletion strains, growth OD, locus YGR229C, strain SMI1, active compounds read low
About 2,000 (36%) of roughly 5,500 compounds were called active. Not shown: some 18% with an inconclusive outcome. The list shows a part of the results.
quantity: normalized growth

molecule: NC(N)=NCCCCN=C(N)N
quantity: normalized growth
recorded_value: 0.999
--
molecule: CNc1ncnc2c1ncn2[C@@H]1O[C@H](CO)[C@H](O)C1O (some centres undefined)
quantity: normalized growth
recorded_value: 1.01
--
molecule: NC(=O)N[C@@H]1O[C@H](CO)[C@@H](O)[C@H](O)[C@H]1O
quantity: normalized growth
recorded_value: 1
--
molecule: Cc1onc(-c2ccccc2)c1-c1ccc(S(N)(=O)=O)cc1
quantity: normalized growth
recorded_value: 0.994
--
molecule: CC(=O)OC1CC(OC(C)=O)C2(C)C(CC(OC(C)=O)C3(C)C2CCC2(C)C(c4ccoc4)OC(=O)C4OC423)C1(C)C (centres undefined)
quantity: normalized growth
recorded_value: 0.997
--
molecule: Cc1ccccc1CNc1ncnc2c1ncn2C1OC(CO)C(O)C1O (centres undefined)
quantity: normalized growth
recorded_value: 1.02
--
molecule: CCCCCCCCCCCCCC(=O)OC1C(C)C2(O)C(C=C(CO)CC3(O)C(=O)C(C)=CC32)C2C(C)(C)C12OC(C)=O (centres undefined)
quantity: normalized growth
recorded_value: 1.02
--
molecule: CC1(C)C(=O)[C@@H]2O[C@@H]2[C@@]2(C)C1C[C@@H](O)[C@]1(C)C2CC[C@@]2(C)[C@H](c3ccoc3)OC(=O)C3OC321 (some centres undefined)
quantity: normalized growth
recorded_value: 0.981
--
molecule: CC(C)=CC1C(C(=O)OCc2cccc(Oc3ccccc3)c2)C1(C)C (centres undefined)
quantity: normalized growth
recorded_value: 0.99
